Target: recombinant human CLK3 (Homo sapiens)
Assay: CLK3 kinase assay (LANCE Ultra)
Conditions: 0.5 nM CLK3, 300 μM ATP, 3 hours at 30° C.

mol: CNC(=O)CO/N=C1\c2cc(O[C@H]3CC[C@H](N)CC3)ccc2-c2ncnc(N)c2C1(C)C
IC50, nM: 23.3

mol: CO/N=C1\c2cc(O[C@H]3CC[C@@H](N)CC3)ccc2-c2ncnc(N)c2C1(C)C
IC50, nM: 1.9

mol: COc1ccc2c(c1)/C(=N\OCCCN)C(C)(C)c1c(N)ncnc1-2
IC50, nM: 265

mol: CO/N=C1\c2cc(O[C@@H]3CC[C@@H](N)[C@@H](F)C3)ccc2-c2ncnc(N)c2C1(C)C
IC50, nM: 2.76

====

Target: recombinant human CLK3 (Homo sapiens, UniProt P49761)
Construct: purchased Thermo Fisher Scientific PV3826
Sequence (P49761 whole entry): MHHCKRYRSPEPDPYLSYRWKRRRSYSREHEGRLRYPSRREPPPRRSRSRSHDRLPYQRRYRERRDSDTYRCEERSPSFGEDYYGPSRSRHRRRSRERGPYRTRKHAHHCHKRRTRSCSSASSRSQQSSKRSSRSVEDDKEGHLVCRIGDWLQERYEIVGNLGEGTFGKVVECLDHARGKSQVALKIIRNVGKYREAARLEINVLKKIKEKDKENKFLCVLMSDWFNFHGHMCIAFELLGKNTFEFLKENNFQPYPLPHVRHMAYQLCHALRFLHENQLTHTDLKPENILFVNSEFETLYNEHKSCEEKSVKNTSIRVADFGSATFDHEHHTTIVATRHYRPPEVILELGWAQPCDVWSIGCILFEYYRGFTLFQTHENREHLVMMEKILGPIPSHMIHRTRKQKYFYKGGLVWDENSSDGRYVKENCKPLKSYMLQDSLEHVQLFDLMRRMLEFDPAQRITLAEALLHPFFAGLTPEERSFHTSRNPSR
Test: CLK3 kinase assay (LANCE Ultra)
Assay type: biochemical
Settings: 0.5 nM CLK3, 300 μM ATP, 3 hours at 30° C.
Could you please mark rule met for values of IC50 below 20 nM and rule not met for values at or above it?

compound: CO/N=C1\c2c(ccc(OC)c2Cl)-c2ncnc(N)c2C1(C)C
system-tested: recombinant human CLK3 (Homo sapiens, UniProt P49761)
assigned-label: rule not met
--
compound: COc1ccc2c(c1)/C(=N\O[C@H]1CC[C@H](N)CC1)C(C)(C)c1c(N)ncnc1-2
system-tested: recombinant human CLK3 (Homo sapiens, UniProt P49761)
assigned-label: rule not met
--
compound: COc1ccc2c(c1)/C(=N\OC[C@H]1CC[C@H](N)CC1)C(C)(C)c1c(N)ncnc1-2
system-tested: recombinant human CLK3 (Homo sapiens, UniProt P49761)
assigned-label: rule not met
--
compound: CC1(C)/C(=N/OCC2CNC(=O)O2)c2cc(O[C@H]3CC[C@H](N)CC3)ccc2-c2ncnc(N)c21 (some centres unmarked)
system-tested: recombinant human CLK3 (Homo sapiens, UniProt P49761)
assigned-label: rule met
--
compound: CC1(C)/C(=N/OCCc2ccccc2)c2cc(O[C@H]3CC[C@@H](N)CC3)ccc2-c2ncnc(N)c21
system-tested: recombinant human CLK3 (Homo sapiens, UniProt P49761)
assigned-label: rule not met
--
compound: CC1(C)/C(=N/OCCCC#N)c2cc(O[C@H]3CC[C@H](N)CC3)ccc2-c2ncnc(N)c21
system-tested: recombinant human CLK3 (Homo sapiens, UniProt P49761)
assigned-label: rule met
--
compound: CC1(C)/C(=N/O)c2cc(O[C@H]3CC[C@H](N)CC3)ccc2-c2ncnc(N)c21
system-tested: recombinant human CLK3 (Homo sapiens, UniProt P49761)
assigned-label: rule met
--
compound: COCCO/N=C1\c2cc(Br)ccc2-c2ncnc(N)c2C1(C)C
system-tested: recombinant human CLK3 (Homo sapiens, UniProt P49761)
assigned-label: rule not met

====

Target: recombinant human CLK3 (Homo sapiens)
Assay: CLK3 kinase assay (LANCE Ultra)
Conditions: 0.5 nM CLK3, 300 μM ATP, 3 hours at 30° C.
property-measured: IC50 (nM)

mol: CC1(C)/C(=N/OC[C@@H]2CNC(=O)O2)c2cc(C#N)ccc2-c2ncnc(N)c21
system-tested: recombinant human CLK3 (Homo sapiens)
meas-value: 142

mol: COc1ccc2c(c1)/C(=N\OC[C@@H]1CNC(=O)C1)C(C)(C)c1c(N)ncnc1-2
system-tested: recombinant human CLK3 (Homo sapiens)
meas-value: 79.3

mol: CC1(C)/C(=N/OC[C@@H]2CN(CCO)C(=O)O2)c2cc(Br)ccc2-c2ncnc(N)c21
system-tested: recombinant human CLK3 (Homo sapiens)
meas-value: 5.1

mol: CC1(C)/C(=N\O)c2cc(O[C@H]3CC[C@H](N)CC3)ccc2-c2ncnc(N)c21
system-tested: recombinant human CLK3 (Homo sapiens)
meas-value: 12.7

mol: CO/N=C1/c2cc(O[C@H]3CC[C@H](N)CC3)ccc2-c2ncnc(N)c2C1(C)C
system-tested: recombinant human CLK3 (Homo sapiens)
meas-value: 104

mol: CO/N=C1\c2cc(OC)c(Cl)cc2-c2ncnc(N)c2C1(C)C
system-tested: recombinant human CLK3 (Homo sapiens)
meas-value: 92.8

mol: COCCO/N=C1\c2cc(O[C@H]3CC[C@@H](N)CC3)ccc2-c2ncnc(N)c2C12CCCC2
system-tested: recombinant human CLK3 (Homo sapiens)
meas-value: 3.7

mol: CC1(C)/C(=N/OCCC#N)c2cc(O[C@H]3CC[C@@H](N)CC3)ccc2-c2ncnc(N)c21
system-tested: recombinant human CLK3 (Homo sapiens)
meas-value: 4.9

====

compounds and their reported GI50
Test system: MDA-MB-231 cells
Experiment: MDA-MB-231 proliferation assay
Type: cell-based
Conditions: Homo sapiens, 72 hours, YO-PRO-1 readout
property-measured: GI50 (nM)

compound: COc1ccc2c(c1)/C(=N\O[C@H]1CC[C@@H](N)CC1)C(C)(C)c1c(N)ncnc1-2
property-measured: GI50
qualifier-sign: =
meas-value: 1050
--
compound: CO/N=C1\c2cc(OC3CCNCC3)ccc2-c2ncnc(N)c2C1(C)C
property-measured: GI50
qualifier-sign: =
meas-value: 1750
--
compound: CC1(C)/C(=N/OCCO)c2cc(O[C@H]3CC[C@@H](N)CC3)ccc2-c2ncnc(N)c21
property-measured: GI50
qualifier-sign: =
meas-value: 255
--
compound: CC1(C)/C(=N/OCC2CNC(=O)O2)c2cc(O[C@H]3CC[C@H](N)CC3)ccc2-c2ncnc(N)c21 (some centres unmarked)
property-measured: GI50
qualifier-sign: =
meas-value: 620
--
compound: CO/N=C1/c2cc(O[C@H]3CC[C@H](N)CC3)ccc2-c2ncnc(N)c2C1(C)C
property-measured: GI50
qualifier-sign: =
meas-value: 1460
--
compound: C[C@@H](O)CO/N=C1\c2cc(O[C@H]3CC[C@H](N)CC3)ccc2-c2ncnc(N)c2C1(C)C
property-measured: GI50
qualifier-sign: >
meas-value: 2000
--
compound: COC(=O)CCO/N=C1\c2cc(O[C@H]3CC[C@H](N)CC3)ccc2-c2ncnc(N)c2C1(C)C
property-measured: GI50
qualifier-sign: =
meas-value: 597
--
compound: C=C(c1ccc2c(c1)/C(=N/OC)C(C)(C)c1c(N)ncnc1-2)[C@H]1CC[C@H](N)CC1
property-measured: GI50
qualifier-sign: =
meas-value: 443

====

System: MDA-MB-231 cells
Test: MDA-MB-231 proliferation assay
Assay type: cell-based
Details: Homo sapiens, 72 hours, YO-PRO-1 readout
Could you please mark yes (1) for values of GI50 below 500 nM and no (0) for values at or above it?

mol: CC1(C)/C(=N/OCCOC(F)(F)F)c2cc(O[C@H]3CC[C@@H](N)CC3)ccc2-c2ncnc(N)c21
assigned-label: yes (1)
--
mol: CNC(=O)CO/N=C1\c2cc(O[C@H]3CC[C@H](N)CC3)ccc2-c2ncnc(N)c2C1(C)C
assigned-label: no (0)
--
mol: C[C@H](O)CO/N=C1\c2cc(O[C@H]3CC[C@H](N)CC3)ccc2-c2ncnc(N)c2C1(C)C
assigned-label: no (0)
--
mol: CC1(C)/C(=N/OCCN2CCCC2)c2cc(O[C@H]3CC[C@H](N)CC3)ccc2-c2ncnc(N)c21
assigned-label: no (0)
--
mol: COCCO/N=C1\c2cc(O[C@H]3CC[C@@](C)(N)CC3)ccc2-c2ncnc(N)c2C1(C)C
assigned-label: yes (1)
--
mol: CO/N=C1\c2cc(OC)c(N)cc2-c2ncnc(N)c2C1(C)C
assigned-label: no (0)
--
mol: CC1(C)/C(=N/OCCC(F)(F)F)c2cc(O[C@H]3CC[C@@H](N)CC3)ccc2-c2ncnc(N)c21
assigned-label: yes (1)

====

Target: recombinant human CLK3 (Homo sapiens)
Test: CLK3 kinase assay (LANCE Ultra)
Conditions: 0.5 nM CLK3, 300 μM ATP, 3 hours at 30° C.
Procedure: CLK3 kinase activity was measured using the LANCE® Ultra technology (PerkinElmer) essentially as recommended by the supplier. […] The signals were measured using a Synergy 4 reader (BioTek) with a 320/80 nm filter for the excitation and 620/10 nm and 665/8 nm filters for the donor and acceptor emission, respectively. […] IC50 values were calculated by fitting the concentration-response data to a sigmoidal 4-parameter logistic model.
pIC50: −log10 of the molar value.

molecule: CC1(C)/C(=N/OC[C@@H]2CN(CCO)C(=O)O2)c2cc(I)ccc2-c2ncnc(N)c21 [Example 97]
pIC50: 8.77
--
molecule: CC1(C)/C(=N/OCCC#N)c2cc(Br)ccc2-c2ncnc(N)c21 [Example 81]
pIC50: 7.80
--
molecule: CO/N=C1\c2cc(C[C@H]3CC[C@H](N)CC3)ccc2-c2ncnc(N)c2C1(C)C [Example 74]
pIC50: 8.32
--
molecule: COc1ccc2c(c1)/C(=N/OC[C@@H]1CCNC1)C(C)(C)c1c(N)ncnc1-2 [Example 63]
pIC50: 6.50
--
molecule: COc1ccc2c(c1)/C(=N\OCC(=O)NCCN)C(C)(C)c1c(N)ncnc1-2 [Example 8]
pIC50: 7.14
--
molecule: C[C@@H](O)CO/N=C1\c2cc(O[C@H]3CC[C@H](N)CC3)ccc2-c2ncnc(N)c2C1(C)C [Example 78]
pIC50: 7.18
--
molecule: CC1(C)/C(=N\O)c2cc(Br)ccc2-c2ncnc(N)c21 [Example 85]
pIC50: 6.90
--
molecule: COCCO/N=C1\c2cc(O[C@H]3CC[C@@H](N)CC3)ccc2-c2ncnc(N)c2C1(C)C [Example 82]
pIC50: 8.01
--
molecule: COc1ccc2c(c1)/C(=N\OC[C@H]1CNC(=O)O1)C(C)(C)c1c(N)ncnc1-2 [Example 12]
pIC50: 6.89
--
molecule: COc1ccc2c(c1)/C(=N\OCC(N)=O)C(C)(C)c1c(N)ncnc1-2 [Example 7]
pIC50: 6.94
--
molecule: CC1(C)/C(=N/OC[C@@H]2CNC(=O)O2)c2cc(O[C@H]3CC[C@H](N)CC3)ccc2-c2ncnc(N)c21 [Example 38]
pIC50: 8.38
--
molecule: COc1ccc2c(c1)/C(=N\O[C@H]1CC[C@@H](N)CC1)C(C)(C)c1c(N)ncnc1-2 [Example 9]
pIC50: 7.04
--
molecule: COc1ccc2c(c1)/C(=N\OC[C@@H]1CCNC1)C(C)(C)c1c(N)ncnc1-2 [Example 62]
pIC50: 6.43
--
molecule: CC1(C)/C(=N/OCCCS(C)(=O)=O)c2cc(O[C@H]3CC[C@@H](N)CC3)ccc2-c2ncnc(N)c21 [Example 110]
pIC50: 7.50
--
molecule: CC1(C)/C(=N/OC[C@H]2CNC(=O)O2)c2cc(O[C@H]3CC[C@H](N)CC3)ccc2-c2ncnc(N)c21 [Example 37]
pIC50: 7.23
--
molecule: COc1ccc2c(c1)/C(=N\OC[C@@H]1CNC(=O)O1)C(C)(C)c1c(N)ncnc1-2 [Example 13]
pIC50: 8.37

The measured values listed here are drawn from patent US12583825B2.
